molecular target: MAGL (Homo sapiens (Human), UniProt Q99685); test: biochemical
pIC50: −log10 of the molar value.
MEASUREMENT_KIND: pIC50

Some entries whose results are on file:
IN: For the compound Cc1ncc(C#N)cc1OC(=O)N1CCN(Cc2cccc(C(F)(F)F)c2C)C[C@H]1C , give its reported pIC50.
OUT: 5.00 to 6.00

IN: Recall and state the measured pIC50 for N#Cc1cncc(OC(=O)N2CCN(Cc3cccc(Oc4ncccn4)c3)CC2)c1 .
OUT: > 7.00

IN: # return recorded pIC50 for input C[C@@H]1CN(Cc2cc(Cl)cc(Oc3ncccn3)c2)CCN1C(=O)Oc1cncc(C#N)c1
OUT: 6.00 to 7.00

IN: Tell me its pIC50 given O=C(Oc1cncc(C(F)(F)F)c1)N1CCC2(CC1)CC(Oc1cc(Cl)cc(Cl)c1)C2 as the entry.
OUT: > 7.00

IN: Using the record for O=C(Oc1cncc(C(F)(F)F)c1)N1CCC2(CC1)CN(Cc1cccc(Oc3cccc(Cl)c3)c1Cl)C2 , state its measured pIC50.
OUT: > 7.00

IN: Tell me pIC50 reported for C[C@@H]1CN(Cc2cccc(Oc3ncccn3)c2)CCN1C(=O)Oc1cncc(C#N)c1
OUT: > 7.00

IN: For O=C(Oc1cncc(C(F)(F)F)c1)N1CCC2(CC1)CN(Cc1ccc(Oc3ccccc3Cl)cc1)C2 , write its pIC50.
OUT: > 7.00

IN: Supply pIC50 value. Item: CC(=O)Nc1cncc(OC(=O)N2CCN(Cc3ccc(Cl)c(OC(C)C)c3)CC2)c1
OUT: > 7.00

Next:
IN: Fill in reported pIC50 for this entry: CC1CCCN1c1ccc(CN2CCN(C(=O)Oc3cncc(C(N)=O)c3)CC2)c(OC(F)(F)F)c1 (stereo not shown)
OUT: > 7.00

IN: Retrieve pIC50 measured for O=C(Oc1cncc(C(F)(F)F)c1)N1CCC2(CC1)CC(Oc1cccc(C(=O)N3CCCC3)c1)C2 and print it.
OUT: > 7.00

Entry source: patent US11129827B2
